# protocolText: Plasma protein binding in Cynomolgus monkey
# Format: ADME, cell-free, Macaca fascicularis
# appliedConditions: read-out: PPB (converted)
measuredQuantity: fraction unbound

{"columns": ["cpdSmiles", "measuredQuantity", "testValue"],
 "data": [
  ["CCOc1cc(F)c2c(-c3ccc(C(=O)O)c(C(C)C)c3)ncnc2c1", "fraction unbound", 0.007]
]}

* * *

# protocolText: Bioavailability in Sprague-Dawley rat 3 mg/kg, po or 1 mg/kg, iv measured upto 24 hrs
# Assay type: ADME, organism-based
# appliedConditions: in vivo
measuredQuantity: bioavailability (%)

{"columns": ["cpdSmiles", "measuredQuantity", "testValue"],
 "data": [
  ["CCOc1cc(F)c2c(-c3ccc(C(=O)O)c(C(C)C)c3)ncnc2c1", "bioavailability", 80]
]}

* * *

# protocolText: Tmax in Beagle dog at 3 mg/kg, po or 1 mg/kg, iv measured upto 72 hrs
# Format: ADME, organism-based, Canis lupus familiaris
# appliedConditions: in vivo
measuredQuantity: Tmax (min)

{"columns": ["cpdSmiles", "testValue"],
 "data": [
  ["CCOc1cc(F)c2c(-c3ccc(C(=O)O)c(C(C)C)c3)ncnc2c1", 30]
]}

* * *

# protocolText: Tmax in Sprague-Dawley rat at 3 mg/kg, po or 1 mg/kg, iv measured upto 24 hrs
# Format: ADME, organism-based
# appliedConditions: in vivo
measuredQuantity: Tmax (h)

{"columns": ["cpdSmiles", "measuredQuantity", "testValue"],
 "data": [
  ["CCOc1cc(F)c2c(-c3ccc(C(=O)O)c(C(C)C)c3)ncnc2c1", "Tmax", 3]
]}

* * *

# experimentalSystem: Calcium/calmodulin-dependent protein kinase kinase 1 (Homo sapiens)
# Sequence (Q8N5S9 whole entry): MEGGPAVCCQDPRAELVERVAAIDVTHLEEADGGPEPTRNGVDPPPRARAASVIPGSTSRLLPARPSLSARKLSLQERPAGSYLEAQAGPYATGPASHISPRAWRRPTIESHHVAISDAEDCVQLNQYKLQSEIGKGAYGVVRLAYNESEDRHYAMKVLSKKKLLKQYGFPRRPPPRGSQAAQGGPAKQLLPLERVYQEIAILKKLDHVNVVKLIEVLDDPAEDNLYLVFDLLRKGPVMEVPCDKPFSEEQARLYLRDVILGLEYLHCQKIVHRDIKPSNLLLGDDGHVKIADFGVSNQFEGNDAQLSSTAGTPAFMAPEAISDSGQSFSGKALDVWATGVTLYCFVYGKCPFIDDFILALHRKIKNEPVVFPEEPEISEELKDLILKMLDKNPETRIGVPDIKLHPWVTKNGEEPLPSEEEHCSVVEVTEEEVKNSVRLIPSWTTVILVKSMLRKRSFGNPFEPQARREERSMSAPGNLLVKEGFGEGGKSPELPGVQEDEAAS
# protocolText: Inhibition of CaMKK1 (unknown origin) incubated for 20 mins in presence of kinase tracer 236 by TR-FRET
In this section, each of the molecules is paired with its reported IC50.
measuredQuantity: IC50 (µM)

{"columns": ["cpdSmiles", "experimentalSystem", "testValue"],
 "data": [
  ["CCOc1ccc2c(-c3ccc(C(=O)O)c(C(C)C)c3)ncnc2c1", "Calcium/calmodulin-dependent protein kinase kinase 1 (Homo sapiens)", 0.047],
  ["Cc1ncsc1-c1ccc(CNC(=O)[C@@H]2C[C@@H](O)CN2C(=O)[C@@H](NC(=O)CCCCCCCCCOc2ccc3c(-c4ccc(C(=O)O)c(C5CCCC5)c4)ncnc3c2)C(C)(C)C)cc1", "Calcium/calmodulin-dependent protein kinase kinase 1 (Homo sapiens)", 0.094],
  ["CCOc1cc2ncnc(-c3ccc(C(=O)O)c(C4CCCC4)c3)c2cc1F", "Calcium/calmodulin-dependent protein kinase kinase 1 (Homo sapiens)", 0.054],
  ["CCOc1cc2ncnc(-c3ccc(C(=O)O)c(C(C)C)c3)c2cc1F", "Calcium/calmodulin-dependent protein kinase kinase 1 (Homo sapiens)", 0.011],
  ["CCOc1cc(F)c2c(-c3ccc(C(=O)O)c(C(C)C)c3)ncnc2c1", "Calcium/calmodulin-dependent protein kinase kinase 1 (Homo sapiens)", 0.012]
]}

* * *

# protocolText: Tmax in Cynomolgus monkey at 3 mg/kg, po or 1 mg/kg, iv measured upto 72 hrs
# Format: ADME, organism-based, Macaca fascicularis
# appliedConditions: in vivo

{"columns": ["cpdSmiles", "Tmax, h"],
 "data": [
  ["CCOc1cc(F)c2c(-c3ccc(C(=O)O)c(C(C)C)c3)ncnc2c1", 1.7]
]}

* * *

# protocolText: Cmax in Cynomolgus monkey at 3 mg/kg, po or 1 mg/kg, iv measured upto 72 hrs
# Assay type: ADME, organism-based, Macaca fascicularis
# Set-up: time < 72 hrs, dose 3 mg/kg, route po
# appliedConditions: in vivo
measuredQuantity: Cmax (µM)

{"columns": ["cpdSmiles", "testValue"],
 "data": [
  ["CCOc1cc(F)c2c(-c3ccc(C(=O)O)c(C(C)C)c3)ncnc2c1", 28]
]}

* * *

# protocolText: Half life in Cynomolgus monkey at 3 mg/kg, po or 1 mg/kg, iv measured upto 72 hrs
# Type: ADME, organism-based, Macaca fascicularis
# appliedConditions: in vivo

{"columns": ["cpdSmiles", "half-life, h"],
 "data": [
  ["CCOc1cc(F)c2c(-c3ccc(C(=O)O)c(C(C)C)c3)ncnc2c1", 20]
]}

* * *

# experimentalSystem: Von Hippel-Lindau disease tumor suppressor/Elongin B/Elongin C (Homo sapiens, UniProt P40337)
# Sequence (P40337 whole entry, looked up, the tested form may be a part): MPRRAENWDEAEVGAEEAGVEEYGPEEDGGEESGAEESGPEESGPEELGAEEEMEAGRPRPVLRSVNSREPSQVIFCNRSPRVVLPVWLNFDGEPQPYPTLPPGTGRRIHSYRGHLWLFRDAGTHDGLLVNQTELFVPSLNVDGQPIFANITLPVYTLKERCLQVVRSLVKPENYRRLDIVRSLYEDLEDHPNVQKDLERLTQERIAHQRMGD
# protocolText: Binding affinity to N-terminal 6 his tagged VHL (54 to 213 residues)/truncated ElonginC (17 to 122 residues) /full length ElonginB (unknown origin) expressed in Escherichia coli assessed as dissociation constant measured upto 300 secs by SPR analysis

{"columns": ["cpdSmiles", "Kd [nM]"],
 "data": [
  ["Cc1ncsc1-c1ccc(CNC(=O)[C@@H]2C[C@@H](O)CN2C(=O)[C@@H](NC(=O)CCCCCCCCCOc2ccc3c(-c4ccc(C(=O)O)c(C5CCCC5)c4)ncnc3c2)C(C)(C)C)cc1", 130]
]}

* * *

# protocolText: Bioavailability in Cynomolgus monkey at 3 mg/kg, po or 1 mg/kg, iv measured upto 72 hrs
# Format: ADME, organism-based, Macaca fascicularis
# appliedConditions: in vivo

{"columns": ["cpdSmiles", "bioavailability, %"],
 "data": [
  ["CCOc1cc(F)c2c(-c3ccc(C(=O)O)c(C(C)C)c3)ncnc2c1", 95]
]}

* * *

# protocolText: AUC (0 to 72 hrs) in Beagle dog at 3 mg/kg, po or 1 mg/kg, iv measured upto 72 hrs
# Assay type: ADME, organism-based, Canis lupus familiaris
# Design: dose 3 mg/kg, time < 72 hrs, route po
# appliedConditions: in vivo
measuredQuantity: AUC(0-t) at 72 h (µM·h)

{"columns": ["cpdSmiles", "u", "testValue"],
 "data": [
  ["CCOc1cc(F)c2c(-c3ccc(C(=O)O)c(C(C)C)c3)ncnc2c1", "µM·h", 79]
]}

* * *

# protocolText: Bioavailability in C57BL/6 mouse at 10 mg/kg, sc measured upto 72 hrs
# Assay type: ADME, organism-based
# appliedConditions: in vivo
measuredQuantity: bioavailability (%)

{"columns": ["cpdSmiles", "u", "testValue"],
 "data": [
  ["Cc1ncsc1-c1ccc(CNC(=O)[C@@H]2C[C@@H](O)CN2C(=O)[C@@H](NC(=O)CCCCCCCCCOc2ccc3c(-c4ccc(C(=O)O)c(C5CCCC5)c4)ncnc3c2)C(C)(C)C)cc1", "%", 100]
]}

* * *

# protocolText: Cmax in C57BL/6 mouse at 10 mg/kg, po measured upto 72 hrs
# Assay type: ADME, organism-based
# Parameters: time < 72 hrs, dose 10 mg/kg, route po
# appliedConditions: in vivo

{"columns": ["cpdSmiles", "Cmax (µM)"],
 "data": [
  ["Cc1ncsc1-c1ccc(CNC(=O)[C@@H]2C[C@@H](O)CN2C(=O)[C@@H](NC(=O)CCCCCCCCCOc2ccc3c(-c4ccc(C(=O)O)c(C5CCCC5)c4)ncnc3c2)C(C)(C)C)cc1", 3.21]
]}

* * *

# protocolText: Cmax in Beagle dog at 3 mg/kg, po or 1 mg/kg, iv measured upto 72 hrs
# Type: ADME, organism-based, Canis lupus familiaris
# Design: time < 72 hrs, dose 3 mg/kg, route po
# appliedConditions: in vivo
measuredQuantity: Cmax (µM)

{"columns": ["cpdSmiles", "u", "testValue"],
 "data": [
  ["CCOc1cc(F)c2c(-c3ccc(C(=O)O)c(C(C)C)c3)ncnc2c1", "µM", 30]
]}

* * *

# protocolText: AUC (0 to 72 hrs) in Cynomolgus monkey at 3 mg/kg, po or 1 mg/kg, iv measured upto 72 hrs
# Type: ADME, organism-based, Macaca fascicularis
# Design: dose 3 mg/kg, time < 72 hrs, route po
# appliedConditions: in vivo

{"columns": ["cpdSmiles", "AUC(0-t) at 72 h"],
 "data": [
  ["CCOc1cc(F)c2c(-c3ccc(C(=O)O)c(C(C)C)c3)ncnc2c1", "282 µM·h"]
]}

* * *

# protocolText: AUC (0 to 24 hrs) in C57BL/6 mouse at 10 mg/kg, po measured upto 72 hrs
# Assay type: ADME, organism-based
# Parameters: dose 10 mg/kg, time < 72 hrs, route po
# appliedConditions: in vivo

{"columns": ["cpdSmiles", "AUC(0-t) at 72 h (µM·h)"],
 "data": [
  ["Cc1ncsc1-c1ccc(CNC(=O)[C@@H]2C[C@@H](O)CN2C(=O)[C@@H](NC(=O)CCCCCCCCCOc2ccc3c(-c4ccc(C(=O)O)c(C5CCCC5)c4)ncnc3c2)C(C)(C)C)cc1", 3.96]
]}

* * *

# protocolText: Plasma protein binding in Sprague-Dawley rat
# Assay type: ADME, cell-free
# appliedConditions: read-out: PPB (converted)

{"columns": ["cpdSmiles", "fraction unbound"],
 "data": [
  ["CCOc1cc(F)c2c(-c3ccc(C(=O)O)c(C(C)C)c3)ncnc2c1", 0.012]
]}

* * *

# protocolText: Half life in C57BL/6 mouse at 10 mg/kg, sc measured upto 72 hrs
# Format: ADME, organism-based
# appliedConditions: in vivo

{"columns": ["cpdSmiles", "half-life [h]"],
 "data": [
  ["Cc1ncsc1-c1ccc(CNC(=O)[C@@H]2C[C@@H](O)CN2C(=O)[C@@H](NC(=O)CCCCCCCCCOc2ccc3c(-c4ccc(C(=O)O)c(C5CCCC5)c4)ncnc3c2)C(C)(C)C)cc1", 24]
]}
